# ASSAY_DETAILS: Compound stability in human liver microsomes
# Format: in vitro ADME
# ASSAY_CONTEXT: pH 7.4; human liver microsomes; in vivo CLint extrapolated
PROPERTY_NAME: CLint scaled at 5 μM (mL/min/kg)

COc1ncc(-c2ccc3ncc(C#CC(C)(C)O)n3n2)cc1NS(=O)(=O)c1ccc(F)cc1 ... 15.5
CC#Cc1cnc2ccc(-c3cnc(OC)c(NS(=O)(=O)c4ccc(F)cc4F)c3)nn12 ... 1.54
COc1ncc(-c2ccc3ncc(C#CC(C)(C)O)n3c2)cc1NS(=O)(=O)c1ccc(F)cc1F ... 3.4
COc1ncc(-c2ccc3ncc(C#CC(C)O)n3c2)cc1NS(=O)(=O)c1ccc(F)cc1F (stereo not drawn) ... 5.55
CC#Cc1cnc2ccc(-c3cnc(OC)c(NS(=O)(=O)c4ccc(F)cc4)c3)nn12 ... 25.4

a. COc1ncc(-c2ccc3ncc(C#CC(C)O)n3n2)cc1NS(=O)(=O)c1ccc(F)cc1F (stereo not drawn)
b. C#Cc1cnc2ccc(-c3cnc(OC)c(NS(=O)(=O)c4ccc(F)cc4)c3)nn12
Query: Looking at a and b , which one comes out lower in CLint scaled at 5 μM terms? # reply format: chosen label
Result: a
(a: 3.3 mL/min/kg, b: 10.8 mL/min/kg)

###

# ASSAY_DETAILS: Compound stability in human liver microsomes
# Assay type: in vitro ADME
# ASSAY_CONTEXT: pH 7.4; human liver microsomes 0.5 mg protein/mL, compound 5 μM, NADPH 1.0 mM, 37° C.; read-out: Human T1/2
PROPERTY_NAME: half-life at 5 μM (h)

CC#Cc1cnc2ccc(-c3cnc(OC)c(NS(=O)(=O)c4ccc(F)cc4F)c3)cn12 ... 3.54

P. C#Cc1cnc2ccc(-c3cnc(OC)c(NS(=O)(=O)c4ccc(F)cc4)c3)nn12
Q. COc1ncc(-c2ccc3ncc(C#N)n3c2)cc1NS(=O)(=O)c1ccc(F)cc1F
Query: Looking at P and Q , which one comes out lower in half-life at 5 μM terms? # reply format: chosen label
Result: P

###

# TESTED_SYSTEM: PI3K p110α/p85α (h) (Homo sapiens, UniProt P42336)
# Sequence (P42336 whole entry): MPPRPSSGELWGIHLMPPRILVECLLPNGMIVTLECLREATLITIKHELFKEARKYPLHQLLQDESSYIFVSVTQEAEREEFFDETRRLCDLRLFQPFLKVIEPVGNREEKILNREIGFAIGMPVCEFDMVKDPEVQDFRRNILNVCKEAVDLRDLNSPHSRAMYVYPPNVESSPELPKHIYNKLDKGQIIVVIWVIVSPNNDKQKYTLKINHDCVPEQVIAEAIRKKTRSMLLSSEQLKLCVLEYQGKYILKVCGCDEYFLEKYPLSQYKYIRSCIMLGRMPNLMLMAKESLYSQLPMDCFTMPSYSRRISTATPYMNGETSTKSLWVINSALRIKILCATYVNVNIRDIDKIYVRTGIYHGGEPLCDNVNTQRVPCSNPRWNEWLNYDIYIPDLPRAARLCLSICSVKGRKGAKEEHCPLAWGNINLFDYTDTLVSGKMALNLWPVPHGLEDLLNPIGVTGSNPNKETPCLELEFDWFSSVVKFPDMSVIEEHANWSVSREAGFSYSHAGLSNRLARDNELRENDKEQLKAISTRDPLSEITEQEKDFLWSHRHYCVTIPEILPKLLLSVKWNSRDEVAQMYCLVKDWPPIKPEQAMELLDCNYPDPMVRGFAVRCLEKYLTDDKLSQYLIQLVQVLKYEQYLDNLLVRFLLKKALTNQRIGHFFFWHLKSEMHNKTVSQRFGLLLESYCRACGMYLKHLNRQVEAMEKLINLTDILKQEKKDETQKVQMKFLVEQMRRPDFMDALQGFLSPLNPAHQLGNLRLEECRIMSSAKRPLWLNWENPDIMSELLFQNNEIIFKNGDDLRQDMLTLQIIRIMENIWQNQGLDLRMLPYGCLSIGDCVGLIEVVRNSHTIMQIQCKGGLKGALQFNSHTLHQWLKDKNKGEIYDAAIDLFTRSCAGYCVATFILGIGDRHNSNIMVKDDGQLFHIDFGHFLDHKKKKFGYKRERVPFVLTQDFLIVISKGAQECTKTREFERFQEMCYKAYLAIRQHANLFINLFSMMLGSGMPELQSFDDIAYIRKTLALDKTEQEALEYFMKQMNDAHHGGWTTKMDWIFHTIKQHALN
# Sequence (P27986 whole entry partner): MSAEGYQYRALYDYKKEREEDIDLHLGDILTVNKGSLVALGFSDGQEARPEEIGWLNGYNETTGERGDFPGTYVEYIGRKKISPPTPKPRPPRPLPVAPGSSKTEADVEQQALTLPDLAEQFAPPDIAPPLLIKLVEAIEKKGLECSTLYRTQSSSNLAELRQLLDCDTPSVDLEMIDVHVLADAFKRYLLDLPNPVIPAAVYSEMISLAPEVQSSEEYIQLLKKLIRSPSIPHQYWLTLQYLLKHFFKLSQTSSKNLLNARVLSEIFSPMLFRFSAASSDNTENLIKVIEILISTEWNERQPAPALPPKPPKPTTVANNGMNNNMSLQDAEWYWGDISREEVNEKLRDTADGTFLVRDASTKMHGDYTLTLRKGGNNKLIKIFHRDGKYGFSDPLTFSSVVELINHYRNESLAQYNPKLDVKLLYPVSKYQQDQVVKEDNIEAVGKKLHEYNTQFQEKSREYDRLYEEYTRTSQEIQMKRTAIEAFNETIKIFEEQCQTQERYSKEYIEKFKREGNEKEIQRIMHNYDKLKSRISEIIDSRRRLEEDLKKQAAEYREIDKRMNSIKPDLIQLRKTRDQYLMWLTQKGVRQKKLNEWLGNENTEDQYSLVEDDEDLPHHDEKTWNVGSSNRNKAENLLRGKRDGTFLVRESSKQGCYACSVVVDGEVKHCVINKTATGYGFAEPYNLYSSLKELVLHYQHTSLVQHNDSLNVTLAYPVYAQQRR
# ASSAY_DETAILS: PI3K p110α/p85α (h) non-radioactive HTRF assay
PROPERTY_NAME: IC50 (nM)

COc1ncc(-c2ccc3ncc(C#CC(C)O)n3c2)cc1NS(=O)(=O)c1ccc(F)cc1F (centres unmarked) [Ex. 16] ... 2
COc1ncc(-c2ccc3ncc(C#CC(C)O)n3n2)cc1NS(=O)(=O)c1ccc(F)cc1F (centres unmarked) [Ex. 10] ... 3
COc1ncc(-c2ccc3ncc(C#N)n3n2)cc1NS(=O)(=O)c1ccc(F)cc1 [Ex. 6] ... 4
COc1ncc(-c2ccc3ncc(C#CCO)n3c2)cc1NS(=O)(=O)c1ccc(F)cc1F [Ex. 15] ... 2
COc1ncc(-c2ccc3ncc(C#CCO)n3n2)cc1NS(=O)(=O)c1ccc(F)cc1F [Ex. 9] ... 2

A. COc1ncc(-c2ccc3ncc(C#CCO)n3n2)cc1NS(=O)(=O)c1ccc(F)cc1 [Ex. 2]
B. COc1ncc(-c2ccc3ncc(C#CC(C)O)n3n2)cc1NS(=O)(=O)c1ccc(F)cc1 (centres unmarked) [Ex. 3]
Query: Between A and B , whose recorded IC50 is greater? # reply format: chosen label
Result: B

1. C#Cc1cnc2ccc(-c3cnc(OC)c(NS(=O)(=O)c4ccc(F)cc4F)c3)nn12 [Ex. 8]
2. COc1ncc(-c2ccc3ncc(C#CC(C)(C)O)n3n2)cc1NS(=O)(=O)c1ccc(F)cc1 [Ex. 4]
Query: Looking at 1 and 2 , which one comes out lower in IC50 terms? # reply format: chosen label
Result: 1

a. C#Cc1cnc2ccc(-c3cnc(Cl)c(NS(=O)(=O)c4ccc(F)cc4)c3)nn12 [Ex. 7]
b. COc1ncc(-c2ccc3ncc(C#CC(C)(C)O)n3n2)cc1NS(=O)(=O)c1ccc(F)cc1F [Ex. 11]
Query: Looking at a and b , which one comes out lower in IC50 terms? # reply format: chosen label
Result: b

I. C#Cc1cnc2ccc(-c3cnc(OC)c(NS(=O)(=O)c4ccc(F)cc4)c3)nn12 [Ex. 1]
II. COc1ncc(-c2ccc3ncc(C#N)n3n2)cc1NS(=O)(=O)c1ccc(F)cc1F [Ex. 24]
Query: Between I and II , whose recorded IC50 is greater? # reply format: chosen label
Result: I
(I: 14 nM, II: 2 nM)
